System: KC
Test: Quantification of cytokines/chemokines in plasma: KC
Format: in vivo, mice
Settings: Example 10; pro-drug in L608 (Merck-32) LNPs, s.c. 0.3 mg mRNA/kg, 7 and 24 hours; vs. Sample S26
observed_property: plasma KC

1. CCCCCCCC/C=C\CCCCCCCC(=O)OCC(=O)[C@@]12OC(CCC)O[C@@H]1C[C@H]1[C@@H]3CCC4=CC(=O)C=C[C@]4(C)[C@H]3[C@@H](O)C[C@@]12C (stereo partly shown) [B-C18:1, budesonide oleate]    significantly reduce
2. CCCCCCCCCCCCCC(=O)OCC(=O)C12OC(CCC)OC1CC1C3CC(F)C4=CC(=O)CCC4(C)C3(F)C(O)CC12C (stereo not shown) [R-C14, rofleponide myristate]    significantly reduce
3. CCCCCCCCCCCCCCCC(=O)OCC(=O)[C@@]12OC(CCC)O[C@@H]1C[C@H]1[C@@H]3CCC4=CC(=O)C=C[C@]4(C)[C@H]3[C@@H](O)C[C@@]12C (stereo partly shown) [B-C16, budesonide palmitate]    significantly reduce
